Provenance of the data: ChEMBL document CHEMBL1275297

Kindly supply the reported Kd values for the records listed here.
- System Name: Cytochrome P450 1A1 (Homo sapiens)
- Sequence (P04798 whole entry): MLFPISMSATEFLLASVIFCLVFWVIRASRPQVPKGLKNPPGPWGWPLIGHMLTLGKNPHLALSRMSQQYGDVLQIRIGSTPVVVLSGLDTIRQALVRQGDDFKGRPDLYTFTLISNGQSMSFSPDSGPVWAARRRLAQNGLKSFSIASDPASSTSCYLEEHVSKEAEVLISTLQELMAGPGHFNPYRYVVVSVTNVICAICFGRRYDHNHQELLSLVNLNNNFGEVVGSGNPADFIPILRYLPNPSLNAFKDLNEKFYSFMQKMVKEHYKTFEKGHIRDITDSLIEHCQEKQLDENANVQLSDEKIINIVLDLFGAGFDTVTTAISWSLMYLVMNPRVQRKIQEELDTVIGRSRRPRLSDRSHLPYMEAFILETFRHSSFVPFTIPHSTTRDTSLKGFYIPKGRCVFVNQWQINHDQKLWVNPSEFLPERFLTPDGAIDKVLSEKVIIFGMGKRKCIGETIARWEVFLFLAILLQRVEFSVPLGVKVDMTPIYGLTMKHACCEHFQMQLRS
Numbers only, in µM.

                input_smiles  measure  unit_of_measure  quantitative_readout
0  O=C(O)CCC(=O)Nc1ccc(O)cc1       Kd               µM                  2.25

Please turn your attention to the following entry.
Task item: Can you share its Kd? I mean this molecule: CC(=O)Nc1ccc(O)cc1
Reply: 19.1
